- EXPERIMENTAL_SYSTEM: Mouse GCGR (mouse, UniProt Q61606 27-485)
- Sequence (Q61606 27-485): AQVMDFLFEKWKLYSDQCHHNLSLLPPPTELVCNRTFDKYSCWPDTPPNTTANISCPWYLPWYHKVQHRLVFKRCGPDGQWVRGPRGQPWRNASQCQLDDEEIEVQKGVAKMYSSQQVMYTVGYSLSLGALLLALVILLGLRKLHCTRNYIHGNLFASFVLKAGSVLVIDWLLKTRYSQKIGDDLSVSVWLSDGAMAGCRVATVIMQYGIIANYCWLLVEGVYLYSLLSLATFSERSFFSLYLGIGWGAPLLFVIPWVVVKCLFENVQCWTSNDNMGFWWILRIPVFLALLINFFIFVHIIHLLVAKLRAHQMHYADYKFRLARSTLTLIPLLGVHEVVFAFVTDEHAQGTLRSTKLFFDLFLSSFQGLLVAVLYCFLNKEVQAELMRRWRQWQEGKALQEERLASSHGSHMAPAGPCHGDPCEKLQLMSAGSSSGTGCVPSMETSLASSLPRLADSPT
- EXPERIMENTAL_PROTOCOL: cell-based or functional assay
Recorded Imax (%) for the following binders
State the answer as a number, implicitly in %.

Consider the worked cases shown below.
[
  {
    "BINDER": "ch1803 (antibody, human IgG4 S228P, kappa, F234A L235A, V domains shown, IgG4-AA / kappa chimeric antibody) VH: QFQLHQSGAELVKPGASVKLSCKATGYTFTDYWIEWVKQRPGHGLEWIGEILPGSTYTNYNEKFKGRATFTAEPSSSSAYMQLSGLTTEDSAIYYCSRGLSTLMAVDYFDYWGQGTTLTVSS VL: DIQMTQTTSSLSASLGDRVTINCRASQDISNYLNWYQQKPDGTVKLLIYYSSTLHSGVPSRFSGSGSGTDYSLTISHLEQEDIATYFCQQTNIFPWTFGGGTKLEIRT",
    "MEAS_VALUE": 93
  },
  {
    "BINDER": "ch1822 (antibody, human IgG4 S228P, kappa, F234A L235A, V domains shown, IgG4-AA / kappa chimeric antibody) VH: EVRLVESGGDFVQPGRSVKLSCAASGFTFSNYYMAWVRQAPTKGLEWVGSISTGGVNTYYRDSVKGRFTISRDNAESTLYLQMDSLRSEETATYYCARHTTPDYHYGIYFAMDAWGQGTSVTVSS VL: QVTLTQPKSVSGSLRSTITIPCERSSGDIGESYVNWYQQHLGRPPINVIYADDQRPSEVSDRFSGSIDSSSNSASLTITNLQVDDEADYFCQSYDSSIDIFFGGGTKLTVLR",
    "MEAS_VALUE": 87
  },
  {
    "BINDER": "ch1805 (antibody, human IgG4 S228P, kappa, F234A L235A, V domains shown, IgG4-AA / kappa chimeric antibody; also called chimeric antibody of clone 1805) VH: EVQLQQSGPELVKPGASVKIPCKTSGYTFTDYNMDWVKQSHGRSLEWIGSIDPDNGGTIYNQKFKGKATLTVDKSSSTAYMELRSLTSEDTAVYYCTRDYYGSSSWFAYWGQGTLVTVSA VL: DVVMTQSPATLSVTPGDRVSLSCRASQSISDYLHWYQQKSHESPRLLIKYASQSISGIPSRFSGSGSGSDFTLSINSVEPEDVGVYYCQNGHSFPYTFGGGTKLEIKR",
    "MEAS_VALUE": 100
  },
  {
    "BINDER": "ch1817 (antibody, human IgG4 S228P, kappa, F234A L235A, V domains shown, IgG4-AA / kappa chimeric antibody) VH: EVQLVESGGDLVQPGRSMKLSCAASGFTFSNYYMAWVRQAPTKGLEWVASISTGGVNTYYRDSVKGRFTISRDNAKNNLYLQMDSLRSEETATYYCARHTTADYFYGIYFALDAWGQGTSVTVSS VL: QFTLTQPKSVSGSLRSTITIPCERSSGDIGDSYVNWYQQHLGRPPLNVIYADVQRPSEVSDRFSGSIDSSSNSASLTITNLQMDDEADYFCQSYDTNIDIIFGGGTKLTVLR",
    "MEAS_VALUE": 96
  }
]

Measured Imax (%) of ch1808 (antibody, human IgG4 S228P, kappa, F234A L235A, V domains shown, IgG4-AA / kappa chimeric antibody) VH: QVQLQQSGAELARPGASVKLSCKASGDTFTTNGISWVKQRIGQGLEWIGEIYPRSGNTYYNENFKGKATLTADKSSTTAYMELRRLTSEDSAVYFCARSITSVIGADYFDYWGQGTTLTVSS VL: DIQMTQTTSSLSASLGDRVTISCRASQDISNYLNWYQKKPDGTVKLLIYYSSTLHSGVPSRFSGSGSGTDYSLTISNLEQEDIATYFCQQGNTFPWTFGGGTKLEIKR : 100

Values from patent US20220153853A1
